systemName: MERTK (UniProt Q12866)
Sequence (Q12866 whole entry, looked up): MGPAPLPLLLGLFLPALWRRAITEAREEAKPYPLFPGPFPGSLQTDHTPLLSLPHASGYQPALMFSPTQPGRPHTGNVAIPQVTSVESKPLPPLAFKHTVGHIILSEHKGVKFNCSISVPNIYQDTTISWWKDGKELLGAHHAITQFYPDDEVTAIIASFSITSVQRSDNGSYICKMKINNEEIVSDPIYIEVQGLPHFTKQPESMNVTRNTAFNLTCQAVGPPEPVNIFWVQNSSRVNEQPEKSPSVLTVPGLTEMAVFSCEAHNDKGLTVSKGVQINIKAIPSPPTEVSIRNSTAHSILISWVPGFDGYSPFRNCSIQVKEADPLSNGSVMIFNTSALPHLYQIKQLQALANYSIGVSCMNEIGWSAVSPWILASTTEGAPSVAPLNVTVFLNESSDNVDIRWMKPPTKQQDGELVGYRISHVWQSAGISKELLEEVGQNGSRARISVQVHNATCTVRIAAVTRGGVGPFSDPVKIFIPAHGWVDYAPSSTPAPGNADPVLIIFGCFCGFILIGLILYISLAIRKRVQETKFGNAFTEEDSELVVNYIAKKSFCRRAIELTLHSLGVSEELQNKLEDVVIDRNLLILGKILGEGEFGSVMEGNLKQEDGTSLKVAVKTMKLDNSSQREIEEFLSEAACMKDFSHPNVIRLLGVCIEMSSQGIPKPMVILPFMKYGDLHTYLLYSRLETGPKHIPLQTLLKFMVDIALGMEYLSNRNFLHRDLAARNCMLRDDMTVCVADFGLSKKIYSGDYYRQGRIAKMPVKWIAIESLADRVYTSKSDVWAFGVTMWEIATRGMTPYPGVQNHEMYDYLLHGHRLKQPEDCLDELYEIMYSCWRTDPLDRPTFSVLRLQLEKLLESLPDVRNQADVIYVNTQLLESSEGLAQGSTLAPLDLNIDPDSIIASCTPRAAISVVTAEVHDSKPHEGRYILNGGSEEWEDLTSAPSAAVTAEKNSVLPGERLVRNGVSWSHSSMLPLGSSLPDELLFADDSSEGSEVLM
protocolText: phosphorylation enrichment, bacterial display (enrichment ratio); higher = better substrate or ligand; peptides without Tyr show the background
Examples of sequences with documented phosphorylation enrichment follow.

- sequenceCode: "SSQTVYQRVEG [TFR2_Y23]"
  phosphorylation enrichment: 0.499
- sequenceCode: "IGMLIYFARKA [VCAM1_Y718_I716L]"
  phosphorylation enrichment: 0.496
- sequenceCode: "IQTDGYRAPEA [UHMK1_Y197]"
  phosphorylation enrichment: 0.491
- sequenceCode: "ELTAKYLNYYR [P3H4_Y181_Q186R]"
  phosphorylation enrichment: 0.496
- sequenceCode: "RLTEGYTGPFK [ZNF862_Y181_I178T]"
  phosphorylation enrichment: 0.402
- sequenceCode: "QSSEGYGLGDR [KIAA1210_Y564]"
  phosphorylation enrichment: 0.847
- sequenceCode: "LRFDSYSSFCN [SLC20A2_Y433_YF]"
  phosphorylation enrichment: 0.479
- sequenceCode: "QCTSDYPEHVC [SART3_Y541]"
  phosphorylation enrichment: 0.565
- sequenceCode: "KVDKEYEVHVR [GHR_Y226_R229H]"
  phosphorylation enrichment: 0.416
- sequenceCode: "EDAHHYLCKEV [JAK2_Y382_A377E]"
  phosphorylation enrichment: 0.411
- sequenceCode: "GDLTDYLMKIL [ACTA1_Y190_R185G]"
  phosphorylation enrichment: 0.355
- sequenceCode: "NCLRQYVAGRF [CRB1_Y711_E710Q]"
  phosphorylation enrichment: 0.456
- sequenceCode: "LFSDHYSPSGR [TMPRSS12_Y23_YF]"
  phosphorylation enrichment: 0.382
- sequenceCode: "KDAGDYKYKAK [LRIT3_Y326_C328Y]"
  phosphorylation enrichment: 0.32
- sequenceCode: "GGGCGYNRSSG [FUS_Y232_G230C]"
  phosphorylation enrichment: 0.412
- sequenceCode: "HRNNNYEPNLF [BRCA2_Y57_K53R]"
  phosphorylation enrichment: 0.617
- sequenceCode: "MIHSAYALGGL [CPS1_Y590_R587H]"
  phosphorylation enrichment: 0.409
- sequenceCode: "PLKALYLQQRP [ATM_Y2969]"
  phosphorylation enrichment: 0.695
- sequenceCode: "RRDRDYTNLPS [CSF1R_Y923_E920D]"
  phosphorylation enrichment: 0.442
- sequenceCode: "PYRSIYFSSPK [MPG_Y75]"
  phosphorylation enrichment: 0.835
- sequenceCode: "PLRPDYQEPSR [DDR2_Y481]"
  phosphorylation enrichment: 0.516
- sequenceCode: "TEQMAYCPIQC [SHC4_Y403]"
  phosphorylation enrichment: 0.678
- sequenceCode: "IKGNMYFENSF [EGFR_Y112_R108K_YF]"
  phosphorylation enrichment: 0.539
- sequenceCode: "ECKFLYSRKEG [PTPN11_Y263_L261F]"
  phosphorylation enrichment: 0.436
- sequenceCode: "IAAEYYDNLPH [DEGS1_Y284]"
  phosphorylation enrichment: 0.917

* * *

systemName: SHP2-C SH2
protocolText: SH2 binding enrichment of the phosphorylated peptide, bacterial display (enrichment ratio); higher = better substrate or ligand; peptides without Tyr show the background
Listing: SH2 binding enrichment of selected sequences

- sequenceCode: "EREYKYGAHNY [OAT_Y50]"
  systemName: "SHP2-C SH2"
  SH2 binding enrichment: 0.783
- sequenceCode: "LNPDGYKKAYE [CPXM2_Y427_E428K]"
  systemName: "SHP2-C SH2"
  SH2 binding enrichment: 0.613
- sequenceCode: "HLQDEYDFKCK [STAT1_Y170_D165H]"
  systemName: "SHP2-C SH2"
  SH2 binding enrichment: 0.48
- sequenceCode: "KAPPTYDTVLQ [CYP3A4_Y347]"
  systemName: "SHP2-C SH2"
  SH2 binding enrichment: 0.556
- sequenceCode: "LAEMNYVHRDL [EPHB1_Y740]"
  systemName: "SHP2-C SH2"
  SH2 binding enrichment: 0.578
- sequenceCode: "GGGGSYNNFGN [HNRNPA1_Y312_D314N]"
  systemName: "SHP2-C SH2"
  SH2 binding enrichment: 0.587
- sequenceCode: "DASAVYLRDFQ [PLCG2_Y242_H244R]"
  systemName: "SHP2-C SH2"
  SH2 binding enrichment: 0.553

* * *

Each entry below lists one item and its recorded SH2 binding enrichment value.
systemName: Grb2 SH2 (UniProt P62993)
Sequence (P62993 whole entry, looked up): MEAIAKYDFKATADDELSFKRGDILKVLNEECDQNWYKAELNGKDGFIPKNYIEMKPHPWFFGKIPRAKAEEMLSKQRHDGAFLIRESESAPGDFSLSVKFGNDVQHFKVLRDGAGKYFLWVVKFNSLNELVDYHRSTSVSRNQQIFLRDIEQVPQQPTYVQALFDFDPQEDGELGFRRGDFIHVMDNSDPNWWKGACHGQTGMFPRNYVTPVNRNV
protocolText: SH2 binding enrichment of the phosphorylated peptide, bacterial display (enrichment ratio); higher = better substrate or ligand; peptides without Tyr show the background

- sequenceCode: "RRIHSYRGHLW [VHL_Y112]"
  SH2 binding enrichment: 0.799
- sequenceCode: "TINPIHEHVGF [CHN1_Y143_Y143H_YF]"
  SH2 binding enrichment: 0.813
- sequenceCode: "ATDLAYYLVCK [ASL_Y375_R379C]"
  SH2 binding enrichment: 0.803
- sequenceCode: "GFAGKYIAMVM [CYP19A1_Y441_C437Y_YF]"
  SH2 binding enrichment: 0.821
- sequenceCode: "TLSGIYQYSIA [FOXL2_Y81_I84S]"
  SH2 binding enrichment: 0.814

* * *

systemName: Jak2 (UniProt O60674)
Sequence (O60674 whole entry, looked up): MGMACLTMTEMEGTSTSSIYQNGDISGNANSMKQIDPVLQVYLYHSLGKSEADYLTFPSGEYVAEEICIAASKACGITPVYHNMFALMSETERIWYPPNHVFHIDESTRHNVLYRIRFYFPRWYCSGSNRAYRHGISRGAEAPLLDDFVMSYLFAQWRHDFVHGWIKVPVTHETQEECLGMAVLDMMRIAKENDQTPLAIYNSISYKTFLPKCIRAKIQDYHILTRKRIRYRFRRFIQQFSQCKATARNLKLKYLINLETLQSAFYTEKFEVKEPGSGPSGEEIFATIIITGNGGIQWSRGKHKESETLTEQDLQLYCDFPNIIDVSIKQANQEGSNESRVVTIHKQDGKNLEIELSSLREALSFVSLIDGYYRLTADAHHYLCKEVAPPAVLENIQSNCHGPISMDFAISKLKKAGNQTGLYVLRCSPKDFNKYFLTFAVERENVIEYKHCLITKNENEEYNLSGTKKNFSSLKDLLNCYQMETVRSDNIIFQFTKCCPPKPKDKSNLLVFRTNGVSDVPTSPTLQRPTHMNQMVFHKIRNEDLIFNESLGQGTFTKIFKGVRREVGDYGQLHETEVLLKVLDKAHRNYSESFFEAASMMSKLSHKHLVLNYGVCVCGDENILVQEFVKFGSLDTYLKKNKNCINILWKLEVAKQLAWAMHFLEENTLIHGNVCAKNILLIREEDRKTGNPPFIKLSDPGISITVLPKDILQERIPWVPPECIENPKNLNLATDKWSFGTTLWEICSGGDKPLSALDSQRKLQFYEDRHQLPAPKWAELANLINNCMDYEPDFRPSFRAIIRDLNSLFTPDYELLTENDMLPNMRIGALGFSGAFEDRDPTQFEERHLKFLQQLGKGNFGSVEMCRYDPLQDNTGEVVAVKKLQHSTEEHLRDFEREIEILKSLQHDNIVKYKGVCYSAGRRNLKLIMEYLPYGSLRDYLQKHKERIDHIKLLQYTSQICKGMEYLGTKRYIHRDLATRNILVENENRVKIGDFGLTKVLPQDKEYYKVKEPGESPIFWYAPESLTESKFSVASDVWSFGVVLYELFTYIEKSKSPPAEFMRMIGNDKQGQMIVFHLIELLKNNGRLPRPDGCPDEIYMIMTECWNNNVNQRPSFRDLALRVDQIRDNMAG
protocolText: phosphorylation enrichment, bacterial display (enrichment ratio); higher = better substrate or ligand; peptides without Tyr show the background
Output schema: class label derived from phosphorylation enrichment. Mapping: low band: < 0.7; middle band: ≥ 0.7 and < 1; high band: ≥ 1

- sequenceCode: "QGLRLYRSHLA [BTK_Y617_P619S]"
  class: "middle band"
- sequenceCode: "EKPAKYDDIKK [GAPDH_Y255]"
  class: "middle band"
- sequenceCode: "GTYVIYVRFSG [FLNB_Y1687_G1691S]"
  class: "high band"
- sequenceCode: "ETALHYIHDGI [GATD3A_Y250]"
  class: "middle band"
- sequenceCode: "CGSLLYGLVHQ [PRKCG_Y122]"
  class: "low band"
- sequenceCode: "VVVTKYCKEEL [ATP7B_Y1078_A1074V]"
  class: "middle band"
- sequenceCode: "VDSAHYKLLET [DTX3L_Y385]"
  class: "low band"
- sequenceCode: "GGFSRYDEGSG [RECQL5_Y484_D480G]"
  class: "middle band"
- sequenceCode: "AAVNGYAFGGG [ECHS1_Y137]"
  class: "low band"
- sequenceCode: "LANNEYYFQVC"
  class: "high band"
- sequenceCode: "QDLRLYRPHLA [BTK_Y617_G613D]"
  class: "high band"
- sequenceCode: "EKGEEYGGGGG [TUBA1A_Y451_E447K]"
  class: "low band"
- sequenceCode: "LNPLIYTLRNA [OR4C46_Y285_K288R]"
  class: "high band"
- sequenceCode: "ALRASYTPSPA [ESS2_Y418]"
  class: "low band"
- sequenceCode: "YTGDIYSSSNL [LZTR1_Y141_N143S]"
  class: "low band"
- sequenceCode: "YTHSDYQYSQR [PKP2_Y166]"
  class: "middle band"
- sequenceCode: "RPCVVYGGADI [DDX3X_Y301]"
  class: "low band"
- sequenceCode: "FTHSDYQFGQR [PKP2_Y166_S169G_YF]"
  class: "low band"
- sequenceCode: "KFLENYLNRLL [PLD2_Y169_YF]"
  class: "middle band"
- sequenceCode: "FRSSLYSLMET [MYO5C_Y633_L634S]"
  class: "middle band"
- sequenceCode: "EYGFRYELVQY [UGGT2_Y1289]"
  class: "high band"
- sequenceCode: "DNPAKYFILES [DPP10_Y512]"
  class: "middle band"
- sequenceCode: "GANFEYIIAEK [ECHS1_Y35]"
  class: "middle band"
- sequenceCode: "QKFMAYLSQGW [HLCS_Y236_G241W]"
  class: "high band"
- sequenceCode: "VIEYSYTSADG [DHCR7_Y382_C380Y]"
  class: "middle band"
- sequenceCode: "QEVLEYFMKQM [PIK3CA_Y1038_A1035V]"
  class: "high band"
- sequenceCode: "KERNQYGEVMV [MMP21_Y347]"
  class: "low band"
- sequenceCode: "NVADHYRVYKP [ATP6V0D2_Y271_G272R]"
  class: "low band"

* * *

systemName: Fes (UniProt P07332)
Sequence (P07332 whole entry, looked up): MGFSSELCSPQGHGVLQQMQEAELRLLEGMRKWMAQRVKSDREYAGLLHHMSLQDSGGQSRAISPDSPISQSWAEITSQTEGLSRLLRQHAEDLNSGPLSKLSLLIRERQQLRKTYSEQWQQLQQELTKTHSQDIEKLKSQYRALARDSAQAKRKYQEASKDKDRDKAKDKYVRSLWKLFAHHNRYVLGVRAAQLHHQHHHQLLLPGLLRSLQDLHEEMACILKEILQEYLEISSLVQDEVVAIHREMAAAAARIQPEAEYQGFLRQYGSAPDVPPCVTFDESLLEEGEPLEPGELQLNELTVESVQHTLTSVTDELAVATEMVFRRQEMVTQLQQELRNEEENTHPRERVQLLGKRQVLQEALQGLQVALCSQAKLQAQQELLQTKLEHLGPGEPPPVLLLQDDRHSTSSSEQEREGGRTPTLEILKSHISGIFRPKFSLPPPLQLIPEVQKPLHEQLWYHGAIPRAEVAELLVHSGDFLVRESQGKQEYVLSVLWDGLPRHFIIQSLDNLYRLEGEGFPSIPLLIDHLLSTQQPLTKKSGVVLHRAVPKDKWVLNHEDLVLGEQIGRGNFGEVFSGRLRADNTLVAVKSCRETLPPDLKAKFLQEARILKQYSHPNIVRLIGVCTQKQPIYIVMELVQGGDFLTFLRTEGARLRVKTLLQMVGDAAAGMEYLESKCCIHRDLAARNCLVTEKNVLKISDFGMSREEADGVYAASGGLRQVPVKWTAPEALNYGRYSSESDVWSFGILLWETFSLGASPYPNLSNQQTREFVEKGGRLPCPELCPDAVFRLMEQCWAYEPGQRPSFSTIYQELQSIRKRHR
protocolText: phosphorylation enrichment, bacterial display (enrichment ratio); higher = better substrate or ligand; peptides without Tyr show the background
So basically, the class depends on measured phosphorylation enrichment, and the ranges are LOW: < 0.7; MEDIUM: ≥ 0.7 and < 1; HIGH: ≥ 1

- sequenceCode: "TSSAVYMNLAS [GATAD2B_Y317_I316V]"
  class: "MEDIUM"
- sequenceCode: "NVTRKYTRQIL [MAP3K2_Y463]"
  class: "LOW"
- sequenceCode: "QNTGDYCDLFG [PTPN11_Y62_Y63C_YF]"
  class: "HIGH"
- sequenceCode: "VTRLWYPVCFG [ITK_Y336_R335W]"
  class: "HIGH"
- sequenceCode: "WHHTFYNELCV [ACTC1_Y93_R97C]"
  class: "HIGH"
- sequenceCode: "SILTVYSKDNF [PANK2_Y400_A398T_YF]"
  class: "MEDIUM"
- sequenceCode: "IRTIDYRYTVW [IDS_Y497]"
  class: "HIGH"
- sequenceCode: "DSMQSYDLDYP [UNC13B_Y243]"
  class: "MEDIUM"
- sequenceCode: "QGRQTYLLQPA [DDR2_Y813_P815L]"
  class: "LOW"
- sequenceCode: "RTTIHYNFMCN [TP53_Y234_C229R_YF]"
  class: "HIGH"
- sequenceCode: "VEYAKYGSLQG [RET_Y809_R813Q]"
  class: "LOW"
- sequenceCode: "AYRRGYFDEEM [PLEC_Y2971]"
  class: "MEDIUM"
- sequenceCode: "NIRKKYFRAIL [CHD7_Y1217_Q1214R_YF]"
  class: "LOW"
- sequenceCode: "PDGVEYLKNDP [GRIN3A_Y831]"
  class: "HIGH"
- sequenceCode: "ALRASYTPSPA [ESS2_Y418]"
  class: "LOW"
- sequenceCode: "HQKKPYCHTHN [NRAP_Y53_A56T]"
  class: "HIGH"
- sequenceCode: "MIRSAYALRGL [CPS1_Y590_G593R]"
  class: "LOW"
- sequenceCode: "KFEDVYVRICL [B3GALNT1_Y269_G271R]"
  class: "HIGH"
- sequenceCode: "SVTCTYTPALN [TP53_Y126_S127T]"
  class: "HIGH"
